- Tested on: KP-3 (Pancreatic Carcinoma);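 note: after 72 h of two-drug dosing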
- test.description: Bliss excess, mean over the matrix (fraction); higher = more synergy
The entries below are paired with their reported Bliss excess.
Keep it simple and answer with nothing but the number.

>>> endpoint_value("CC(=O)c1c(C)c2cnc(Nc3ccc(N4CCNCC4)cn3)nc2n(C2CCCC2)c1=O [Palbociclib] + Cc1c2c(nn1C)CSCc1cc(n(C)n1)CSc1cc(c3ccccc3c1)OCCCc1c(C(=O)O)n(C)c3c-2c(Cl)ccc13 [AZD5991] (first compound max 10 µM, 7x7, partner max 1 µM)")
-0.0436

Briefly, Bliss excess measured for NC1(C(=O)N[C@@H](CCO)c2ccc(Cl)cc2)CCN(c2ncnc3[nH]ccc23)CC1 [Capivasertib] + CC(C)n1c(=O)n(C)c2cnc3cc(F)c(-c4ccc(OCCCN5CCCCC5)nc4)cc3c21 [AZD1390] (first compound max 10 µM, 7x7, partner max 0.3 µM) : -0.0596

Briefly, Bliss excess measured for COc1nnc2ccc(N3CCC(c4ccc(OCCN5CCN(C)C(=O)[C@H]5C)cc4)CC3)nn12 [AZD5153] + C=CCn1c(=O)c2cnc(Nc3ccc(N4CCN(C)CC4)cc3)nc2n1-c1cccc(C(C)(C)O)n1 [AZD1775] (first compound max 1 µM, partner max 1 µM) : 0.0038

Briefly, Bliss excess measured for Cn1cnc2c(F)c(Nc3ccc(Br)cc3Cl)c(C(=O)NOCCO)cc21 [Selumetinib] + C=CCn1c(=O)c2cnc(Nc3ccc(N4CCN(C)CC4)cc3)nc2n1-c1cccc(C(C)(C)O)n1 [AZD1775] (first compound max 10 µM, partner max 1 µM) : -0.0312
